The reported measurements were obtained from patent US11608335B2.

Target: UniProt:P35346
Sequence (P35346 whole entry): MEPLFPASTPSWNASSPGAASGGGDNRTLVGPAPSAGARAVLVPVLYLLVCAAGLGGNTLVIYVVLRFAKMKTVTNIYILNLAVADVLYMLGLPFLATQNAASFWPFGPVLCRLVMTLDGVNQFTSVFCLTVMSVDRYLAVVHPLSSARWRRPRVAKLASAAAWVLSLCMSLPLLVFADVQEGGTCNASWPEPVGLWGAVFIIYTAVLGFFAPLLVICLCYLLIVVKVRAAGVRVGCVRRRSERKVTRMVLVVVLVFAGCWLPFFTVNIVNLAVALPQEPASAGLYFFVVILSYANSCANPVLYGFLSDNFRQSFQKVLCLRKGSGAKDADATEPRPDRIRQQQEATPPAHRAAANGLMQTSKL
Test: cAMP assay for SST5R (inhibition of cAMP via human SST5 receptor)

{"Compound": "COc1ccc2[nH]c(-c3cncc(-c4cc(C)cc(F)c4)c3N3CC(CN)C3)nc2c1", "EC50": "100 to 1000 nM"}
{"Compound": "NC(=O)c1cc(-c2cncc(-c3nc4c(F)ccc(F)c4[nH]3)c2N2CC[C@H](N)C2)ccc1F", "EC50": "10 to 100 nM"}
{"Compound": "Cc1cc(F)cc(-c2cncc(-c3nc4cc(C#N)c(F)cc4[nH]3)c2N2CC(CN)C2)c1", "EC50": "100 to 1000 nM"}
{"Compound": "CNC(=O)c1cccc2nc(-c3cncc(-c4cccc(C#N)c4)c3N3CC[C@H](N)C3)[nH]c12", "EC50": "> 1000 nM"}
{"Compound": "NCC1CN(c2c(-c3cc(F)c(F)c(F)c3)cncc2-c2nc3cc(F)cc(F)c3[nH]2)C1", "EC50": "< 10 nM"}
{"Compound": "CC1(N)CCN(c2c(-c3ccnc(N)c3)cncc2-c2nc3cccc(F)c3[nH]2)C1 (stereo not shown)", "EC50": "10 to 100 nM"}
{"Compound": "Cc1ccnc2nc(-c3cncc(-c4cc(F)c(F)c(C#N)c4)c3N3CCC(C)(N)C3)[nH]c12 (stereo not shown)", "EC50": "< 10 nM"}

* * *

Target: human somatostatin receptor subtype 2 (Homo sapiens)
Sequence (P30874 whole entry): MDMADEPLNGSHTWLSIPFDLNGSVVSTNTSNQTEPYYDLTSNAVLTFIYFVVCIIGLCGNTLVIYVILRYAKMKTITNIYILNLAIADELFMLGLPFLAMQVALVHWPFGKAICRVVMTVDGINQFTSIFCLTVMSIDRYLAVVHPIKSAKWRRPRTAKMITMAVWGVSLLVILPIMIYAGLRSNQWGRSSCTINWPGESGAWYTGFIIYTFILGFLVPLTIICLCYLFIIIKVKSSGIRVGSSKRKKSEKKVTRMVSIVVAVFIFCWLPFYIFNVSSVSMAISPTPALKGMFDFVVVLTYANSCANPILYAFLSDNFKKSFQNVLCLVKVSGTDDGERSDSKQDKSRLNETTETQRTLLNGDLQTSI
Assay: cAMP assay for SST2R (inhibition of cAMP via human SST2 receptor)
Details: Table B, read-out: SST2 potency
Source text: cAMP Assay Protocol for SST2R:
Each entry below carries its reported EC50.
Assay endpoint: EC50

{"Molecule": "CC(N)C1CN(c2c(-c3cc(F)cc(C#N)c3)cncc2-c2nc3c(F)cc(F)cc3[nH]2)C1 (stereo not shown) [Compound 1-64]", "Val": "> 1000 nM"}
{"Molecule": "COc1cc(-c2cncc(-c3nc4nccc(C)c4[nH]3)c2N2CC[C@](C)(N)C2)ccc1F [Compound 2-189]", "Val": "10 to 100 nM"}
{"Molecule": "Cc1ccnc2[nH]c(-c3cncc(-c4cccc(C#N)c4)c3N3CC[C@](C)(N)C3)nc12 [Compound 2-155]", "Val": "100 to 1000 nM"}
{"Molecule": "Cc1cc(F)cc(-c2cncc(-c3nc4c(F)cc(F)cc4[nH]3)c2N2CC(CN)C2)c1 [Compound 1-7]", "Val": "> 1000 nM"}
{"Molecule": "Cc1ccnc2nc(-c3cncc(-c4cccc(C#N)c4)c3N3CCC(C)(N)C3)[nH]c12 (stereo not shown) [Compound 2-122]", "Val": "100 to 1000 nM"}
{"Molecule": "Cc1cc(-c2cncc(-c3nc4c(F)cccc4[nH]3)c2N2CC[C@](C)(N)C2)ccn1 [Compound 2-178]", "Val": "> 1000 nM"}
{"Molecule": "COc1ccnc2nc(-c3cncc(-c4ccc(F)c(C#N)c4)c3N3CC[C@](C)(N)C3)[nH]c12 [Compound 2-172]", "Val": "> 1000 nM"}

* * *

Each entry below carries its reported pEC50.
Target: UniProt:P30874
Test: cAMP assay for SST2R (inhibition of cAMP via human SST2 receptor)
Details: Table B, read-out: SST2 potency
pEC50: −log10 of the molar value.
Assay endpoint: pEC50

{"Molecule": "Cc1cccc2nc(-c3cncc(-c4cc(F)c(F)c(C#N)c4)c3N3CC[C@H](N)C3)[nH]c12", "Assay endpoint": "pEC50", "Val": "7.00 to 8.00"}
{"Molecule": "CC(N)C1CN(c2c(-c3cc(F)cc(C(F)(F)F)c3)cncc2-c2nc3cc(F)cc(F)c3[nH]2)C1 (centres unmarked)", "Assay endpoint": "pEC50", "Val": "< 6.00"}
{"Molecule": "N[C@H]1CCN(c2c(-c3cc(F)cc(Cl)c3)cncc2-c2nc3c(F)cccc3[nH]2)C1", "Assay endpoint": "pEC50", "Val": "6.00 to 7.00"}
{"Molecule": "N#Cc1cccc(-c2cncc(-c3nc4c(F)cccc4[nH]3)c2N2CCC(N)(CO)C2)c1 (centres unmarked)", "Assay endpoint": "pEC50", "Val": "6.00 to 7.00"}
{"Molecule": "Cc1ccnc2nc(-c3cncc(-c4cccc(Cl)c4)c3N3CCC(N)CC3)[nH]c12", "Assay endpoint": "pEC50", "Val": "7.00 to 8.00"}
{"Molecule": "N#Cc1cc(-c2cncc(-c3nc4cccc(C(F)(F)F)c4[nH]3)c2N2CC[C@H](N)C2)ccc1F", "Assay endpoint": "pEC50", "Val": "6.00 to 7.00"}
{"Molecule": "Cc1ccc(F)c2[nH]c(-c3cncc(-c4cc(F)cc(C#N)c4)c3N3CC[C@H](N)C3)nc12", "Assay endpoint": "pEC50", "Val": "6.00 to 7.00"}
{"Molecule": "Cc1ccc(-c2cncc(-c3nc4c(F)ccc(F)c4[nH]3)c2N2CC[C@H](N)C2)cc1C#N", "Assay endpoint": "pEC50", "Val": "6.00 to 7.00"}
